Source: patent EP0195397A1

# Assayed target: Beta-1 adrenergic receptor membranes (Meleagris gallopavo)
# Construct: Freshly drawn heparinized whole blood from turkeys and rats is centrifuged; from tissue; host or cells: erythrocyte membranes from freshly drawn turkey blood
# Sequence (P07700 whole entry): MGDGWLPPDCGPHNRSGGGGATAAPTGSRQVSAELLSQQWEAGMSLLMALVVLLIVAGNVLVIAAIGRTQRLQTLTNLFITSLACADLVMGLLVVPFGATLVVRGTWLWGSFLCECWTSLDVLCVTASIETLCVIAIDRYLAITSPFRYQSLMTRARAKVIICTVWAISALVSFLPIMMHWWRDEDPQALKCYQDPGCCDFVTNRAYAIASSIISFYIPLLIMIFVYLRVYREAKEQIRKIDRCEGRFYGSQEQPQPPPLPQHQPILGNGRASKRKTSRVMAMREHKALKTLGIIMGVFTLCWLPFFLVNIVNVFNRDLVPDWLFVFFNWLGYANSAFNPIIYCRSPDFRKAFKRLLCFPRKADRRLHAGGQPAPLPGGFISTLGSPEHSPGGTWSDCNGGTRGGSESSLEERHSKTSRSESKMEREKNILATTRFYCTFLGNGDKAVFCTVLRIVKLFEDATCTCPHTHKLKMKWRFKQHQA
# Test details: Beta-1 adrenergic activity by (H3) dihydroalprenolol radioligand binding to receptor membranes
# Parameters: species or system turkey
Result type: IC50

Q: IC50 for CC(C)(C)NCC(O)c1cc(Cl)c(N)c(Cl)c1 (stereo not shown) [Clenbuterol, reference compound] ?
A: 977 nM
